Test system: RXRa DBDmut IVT, anti-RXR (DBD mutation: RXRa K156A/R161A, NR concentration 90 nM)
Test: PBM binding z-score (relative to random genomic background probes); higher = stronger binding; sequences stand for … in GC…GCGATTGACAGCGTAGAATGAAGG
Tick Satisfied if PBM binding z-score is 0.3 or greater. Tick Not satisfied if PBM binding z-score is less than 0.3.

CHAIN_SEQUENCE	ASSIGNED_LABEL
ATCAAAAGGTCGTGAGGTGAGTATACAGAAAGGC	Satisfied
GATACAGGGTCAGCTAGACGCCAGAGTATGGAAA	Satisfied
CCTTTCGGGTCACTGACAGGTTATAGCATTTGGA	Satisfied
CCTTGGAGGACAGAAGGTCAGAGCTGTCCGCTTT	Not satisfied
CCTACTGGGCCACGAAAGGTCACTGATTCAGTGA	Not satisfied

Determine whether measured PBM binding z-score meets or exceeds 0.3 for "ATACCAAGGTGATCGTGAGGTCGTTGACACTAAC"
Satisfied

// query: "CCTACTGGGCCTTCAGGTCATTGATATCAACGTT"
Not satisfied

// query: "TAGCCTAGGTCATGGGCCAGTATACCACGCGAAC"
Satisfied

---

Test system: PPARg:RXRa DBDmut IVT, anti-RXR (DBD mutation: RXRa K156A/R161A, NR concentration 270 nM, RXRa partner concentration 90 nM)
Assay: PBM binding z-score (relative to random genomic background probes); higher = stronger binding; sequences stand for … in GC…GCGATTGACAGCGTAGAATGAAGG
PROPERTY_MEASURED: PBM binding z-score
Lab note: record the figure alone, no unit after it.

Study these solved cases before continuing.
CHAIN_SEQUENCE	ENDPOINT_VALUE
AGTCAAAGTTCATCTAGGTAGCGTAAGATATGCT	0.422
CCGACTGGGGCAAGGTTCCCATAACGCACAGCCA	2.36
TTACCCAGGTGAAGGTCGTTGATCCCTCTGTAGA	1.24
CCTGCTAGGTCAATGATCAGCTAAAGCAGCTCGC	4.45

Please look at the following sequence next.
PBM binding z-score lookup needed for "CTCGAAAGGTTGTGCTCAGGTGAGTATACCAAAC" , thanks.
-0.27

---

System: FXR:RXRa (NR concentration 270 nM, RXRa partner concentration 90 nM)
Assay: PBM binding z-score (relative to random genomic background probes); higher = stronger binding; sequences stand for … in GC…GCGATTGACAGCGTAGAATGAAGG
PROPERTY_MEASURED: PBM binding z-score
Lab note: record the figure alone, no unit after it.

Study these solved cases before continuing.
CHAIN_SEQUENCE	PBM binding z-score
AGAATCAGGTTAAGATCAGGGAAACAGAATACAT	0.729
ATCGACAGGTCGTGAGGTGAGTATACAGAAAGGC	1.05
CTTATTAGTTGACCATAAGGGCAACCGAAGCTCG	0.831
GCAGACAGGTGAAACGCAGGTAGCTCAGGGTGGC	-0.298
GCTCGGAGGACAAGGTCATAGCTTTGTCCGTAGA	4.1
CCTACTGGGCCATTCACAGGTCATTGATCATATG	0.864
CGTCCAAGATCAAGGTCAGTGAAAGAGACTCGAA	1.53
ACAGACAGGTGGGTGAAGGTAACTCAGCTGGACG	0.0751

PBM binding z-score lookup needed for "CCTAGTTGGTCAGGAGGTCACACACCGGATATGA" , thanks.
3.73

// query: "GCTTACTGGTCAAAGGTTATAGCATGAATAGAAT"
2.63
